Molecular target: hGLP-1R (Homo sapiens)
Sequence (P43220 24-463): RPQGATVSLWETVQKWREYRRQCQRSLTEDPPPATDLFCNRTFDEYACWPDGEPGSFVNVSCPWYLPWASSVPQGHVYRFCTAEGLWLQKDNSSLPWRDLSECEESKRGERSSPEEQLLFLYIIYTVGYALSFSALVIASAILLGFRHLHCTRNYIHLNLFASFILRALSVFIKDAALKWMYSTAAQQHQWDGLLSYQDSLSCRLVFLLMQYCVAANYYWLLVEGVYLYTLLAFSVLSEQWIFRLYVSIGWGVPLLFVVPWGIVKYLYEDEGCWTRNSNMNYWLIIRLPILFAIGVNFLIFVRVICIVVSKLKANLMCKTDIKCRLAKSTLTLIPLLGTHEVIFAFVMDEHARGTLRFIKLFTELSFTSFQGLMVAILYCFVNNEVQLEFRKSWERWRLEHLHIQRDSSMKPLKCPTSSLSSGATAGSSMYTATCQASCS
Assay: Functional cAMP activity in the presence of 1% HSA
Assay type: cell-based
Conditions: HEK-293 clonal cells expressing hGLP-1R; in the presence of 1% HSA; geometric mean of relative EC50; read-out: cAMP Rel EC50, hGLP-1R
Starred links: 1 amine or outer side, 2 acyl side, 3 side chain; linkers in the order of their positions; H or OH if unused. Non-standard residues stand in square brackets, D forms with d. Groups on a side chain read outwards from the residue. *: point of attachment. C20 diacid = O=C(O)CCCCCCCCCCCCCCCCCCC(=O)*; C18 diacid = O=C(O)CCCCCCCCCCCCCCCCC(=O)*; αMePhe(2-F) = C[C@](N)(Cc1ccccc1F)C(=O)O; γGlu = O=C(O)[C@H](CCC(=O)[*:2])N[*:1]; αMeL = CC(C)C[C@](C)(N)C(=O)O; AEEA = NCCOCCOCC(=O)O; Aib = CC(C)(N)C(=O)O
Quick reference: EC50 of the listed items.
API: value field is a number in nM; no unit string.

# SUBSTANCE, TESTED_ON, EC50 / nM
data = [
    ("H-Y[Aib]QGT[αMePhe(2-F)]TSDYSI[αMeL]LDKK([AEEA-AEEA-γGlu-C20 diacid])AA[Aib]AFIEYLIETGPSSGAPPPSEG-NH2 [Example 383]", "hGLP-1R (Homo sapiens)", 79.1),
]

Proceed to the following item.
Identify EC50 associated with the substance H-Y[Aib]QGT[αMePhe(2-F)]TSDYSK[αMeL]LDKK([AEEA-γGlu-C18 diacid])AQ[Aib]QFIEYLEEGGPSSGEPPPSEG-NH2 [Example 292] 129
